# system_tested: Transient receptor potential cation channel subfamily M member 8 (Mus musculus)
# method_description: Agonist activity at mouse TRPM8 expressed in HEK293 cells assessed as increase in calcium flux at 50 uM after 60 mins by Fluo-4 NW dye based fluorometric assay
# Format: cell-based
Active and inactive are the calls of the source. The calls are words filed in the database; no cut-off is given here.
assay_endpoint: Activity

The following molecules have reported results that may help.
[
  {
    "smiles_structure": "COc1ccc(CNCCc2cn(C)c3ccccc23)cc1",
    "Activity": "Active"
  },
  {
    "smiles_structure": "c1ccc2c(CNCCc3c[nH]c4ccccc34)cccc2c1",
    "Activity": "Active"
  },
  {
    "smiles_structure": "Cn1cc(CCNCc2ccc(Cl)cc2)c2ccccc21",
    "Activity": "Active"
  },
  {
    "smiles_structure": "COc1ccc(CCNCCc2cn(Cc3ccc(-c4ccccc4)cc3)c3ccccc23)cc1OC",
    "Activity": "Active"
  }
]

Now examine the next entry.
Consider the molecule shown here: Cn1cc(CCNCCc2ccc(-c3ccccc3)cc2)c2ccccc21 What is its recorded Activity?
Active

meta.source: ChEMBL document CHEMBL3785083
